Recorded values, source PubChem BioAssay AID651592.

Assay: inhibitors of NFkB activation in CF airway cells, SAR follow-up, KKLEB cells, panel, IL8 HTRF, NFkB-GFP (AID 651592);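 also: immortalized cystic fibrosis airway epithelial KKLEB cells with an NF-kB GFP reporter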
Conditions: PAF/TNFa-induced NFkB-GFP / IL8 HTRF, CF-PAF assay, mean of runs
The source made the active and inactive calls.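 The calls were made as follows: active = NF-kB reporter IC50 at most 10 µM, IL-8 IC50 within fivefold of it with bacterial filtrate but not with TNF-alpha; inactive = the rest.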
Your response should consist of one outcome taken from True (active), False (inactive)

smiles_record=O=C(Nc1ccc(N2CCN(C(=O)c3ccccc3F)CC2)cc1)c1ccccc1 assigned_label=False

[in] Per the records of this test, what outcome belongs to O=C(Nc1ccc(N2CCN(C(=O)c3ccccc3)CC2)cc1)c1cncc(Br)c1 ?
[out] True

[in] Could you kindly confirm the outcome this assay logged for O=C(Nc1ccc(N2CCN(C(=O)c3ccccc3F)CC2)cc1)c1cccc(Br)c1 ?
[out] False

[in] Per the records of this test, what outcome belongs to O=C(Nc1ccc(N2CCN(C(=O)c3ccccc3Cl)CC2)cc1)c1cccnc1 ?
[out] False

[in] Kindly provide the recorded test outcome for the following compound: O=C(Nc1ccc(N2CCN(C(=O)c3ccccc3Cl)CC2)cc1)c1ccccn1
[out] False

[in] What was the test verdict on O=C(Nc1ccc(N2CCN(C(=O)c3ccccc3Cl)CC2)cc1)c1ccncc1 ?
[out] False
